Recorded values, source patent US20230227537A1.

Recorded measurements of IC50, one per entry
system_tested: SARS-CoV-2 RBD protein Avi-tag biotinylated (AcroBiosystems SPD-C82E9) (SARS-CoV-2, UniProt P0DTC2 330-518)
property_label: IC50 (nM)

* VHH3.35 (VHH) VHH: QVQLQESGGGLVQAGGSLTLSCEVSGRTNDNYGVGWFRQVPGAERELVAAIRWSSISRYYKDSVKGRFTISRDNAKNTVYLQMDMLKAEDTAVYYCAADPAGWSEFGMEYWGKGTQVTVSS | 0.406
* VHH3.115 (VHH) VHH: QVQLQESGGGLVQTGGSLRLSCAASGLTFSDIAMGWFRQAPGREREFVATISWSGGGTYYAEPVRGRFAISRDNAKNTVYLQMNSLKPEDTAVYYCAAAGAGTVVSEWDYDYDYWGQGTQVTVSS | 0.409
* VHH3.47 (VHH) VHH: QVQLQESGGGLVQAGDSLRLSCAASGHNFSTYAMAWFRQAPGTERELVAAISENDVMRYYADSVKGRFTISRDNAKNMAYLQMNSLKVEDTAVYLCAADPKGWSEWDMDYWGKGTQVTVSS | 0.297
* VHH2.50 (VHH) VHH: QVQLQESGGGLVQAGGSLRLSCAASGRTFSSIAMGWFRQAPGKEREFVATISWSGGSTYYADSVKGRFTISRDNAKNTVYLQMNSLKPEDTAVYYCAAAGLGTVVSEWDYDYDYWGQGTQVTVSS | 27.7
* VHH3.144 (VHH) VHH: QVQLQESGGGLVQAGGSLRLSCVASGRAFGNGAVGWFRQAPGREREFVATVSWNGGGTYYAESVRGRFTISRDNAKSTVYLQMNSLKPEDTAVYYCASAGEGTVVSEWDYDYDYWGQGTQVTVSS | 0.397
* VHH3.83 (VHH) VHH: QVQLQESGGGLVQPGDSLRLSCVLSGGVFTSYAMGWFRQAPGKEREFLAAITFNSDATYYADSVKGRFTISRDNAKNTAYLQMNSLKPNDTAVYSCAAGGNHYNPQYYHDYDKYDHWGQGTQVTVSS | 0.162
* VHH3.36 (VHH) VHH: QVQLQESGGGLVQAGDSLRLSCVVSGGTFSSYAMGWFRQAPGKERELVAAINWGGISVYYADSVKGRFTISRDNAENTVYLQMNSLKPEDTAVYYCAADPKGWSEWDMEYWGKGTQVTVSS | 0.156
* VHH3.17 (VHH) VHH: QVQLQESGGGLVEAGGSLTLSCAASGRAFGDGAVGWFRQGPGRPREFVATVSWNGGGTYFAESVRGRFTISRDNAKNTVYLQMNNLKPEDTAVYYCALAGEGTVVSEWDYDYEYWGQGTQVTVSS | 0.316
* VHH3.38 (VHH) VHH: QVQLQESGGGLVQAGGSLRLSCAASGGTFNNYAMAWFRQAPGQERELVAAMFWSGLPKYYADSVKGRFTISTDDAKNTVYLQMNGLKPEDTAVYYCAADSRGWSDVGGMDYWGKGTQVTVSS | 0.769
* VHH3BE4 (VHH) VHH: QVQLQESGGGLVQAGGSLRLSCVASGRAFGNGAVGWFRQAPGREREFVATVSWNGGGTYYAESVRGRFTISRDNAKSTVYLQMNSLKPEDTAVYYCASAGEGTVVSEWDYDYDYWGQGTQVTVSS | 0.212
